Provenance of the data: patent US20250236608A1

# experimental.target: EGFR L858R (Homo sapiens (Human), UniProt P00533, L858R)
# Sequence (P00533 25-1210 L858R): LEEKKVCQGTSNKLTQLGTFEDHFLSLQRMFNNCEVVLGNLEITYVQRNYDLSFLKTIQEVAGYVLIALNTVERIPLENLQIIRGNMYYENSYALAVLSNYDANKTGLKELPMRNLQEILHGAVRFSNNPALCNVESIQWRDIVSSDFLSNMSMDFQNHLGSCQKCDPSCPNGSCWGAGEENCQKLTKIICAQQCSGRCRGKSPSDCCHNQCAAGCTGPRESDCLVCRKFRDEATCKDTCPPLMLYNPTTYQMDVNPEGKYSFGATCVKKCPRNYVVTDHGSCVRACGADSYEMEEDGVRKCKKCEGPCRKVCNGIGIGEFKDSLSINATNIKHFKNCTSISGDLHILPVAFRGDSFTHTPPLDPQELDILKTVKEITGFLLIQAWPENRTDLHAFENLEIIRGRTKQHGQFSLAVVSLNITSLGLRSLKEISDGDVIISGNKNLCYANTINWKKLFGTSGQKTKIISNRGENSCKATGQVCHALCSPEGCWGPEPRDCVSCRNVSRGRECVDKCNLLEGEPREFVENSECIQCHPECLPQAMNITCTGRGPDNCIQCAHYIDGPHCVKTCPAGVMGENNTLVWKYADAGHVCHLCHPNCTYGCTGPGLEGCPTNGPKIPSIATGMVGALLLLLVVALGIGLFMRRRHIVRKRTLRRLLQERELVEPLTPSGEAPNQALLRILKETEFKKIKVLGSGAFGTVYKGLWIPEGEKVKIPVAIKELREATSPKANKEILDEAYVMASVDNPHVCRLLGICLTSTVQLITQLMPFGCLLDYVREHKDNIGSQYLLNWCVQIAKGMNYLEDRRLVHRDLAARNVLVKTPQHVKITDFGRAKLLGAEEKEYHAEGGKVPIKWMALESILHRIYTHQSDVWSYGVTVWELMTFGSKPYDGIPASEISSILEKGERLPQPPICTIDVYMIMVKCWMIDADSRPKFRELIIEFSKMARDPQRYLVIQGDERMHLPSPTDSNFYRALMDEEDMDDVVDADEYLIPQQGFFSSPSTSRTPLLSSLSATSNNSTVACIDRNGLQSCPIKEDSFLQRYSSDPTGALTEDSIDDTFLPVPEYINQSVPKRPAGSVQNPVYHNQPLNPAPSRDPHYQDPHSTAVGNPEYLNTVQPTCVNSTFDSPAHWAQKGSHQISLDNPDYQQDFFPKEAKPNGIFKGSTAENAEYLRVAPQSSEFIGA
# protocol: Biochemical EGFR inhibition assay, EGFR L858R
# study.conditions: Caliper mobility shift; 1.0 mM ATP or ATP Km; read-out: Enz EGFR_L858R IC50
pIC50: −log10 of the molar value.
property.label: pIC50

(A) COc1cc2ncnc(-c3cn(C)nc3-c3ccccc3)c2cc1NC(=O)C1(C(F)(F)F)CC1
(B) COc1cc2ncnc(-c3cn(C)nc3-c3ccccc3F)c2nc1NC(=O)[C@]12C[C@H]1CN(C)C2
Exercise: compare A and B ; which one has the greater pIC50? Selection: enter the item's label.
A
(A: 8.70, B: 8.37)
